- Test system: 966289-007-R4-J1-PDC complex spheroid viability;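 further: spheroids exposed to agents for one week before readout; percent viability relative to DMSO vehicle control wells as 100%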
- EXPERIMENT: Anticancer human tumor 966289-007-R4-J1-PDC patient-derived pancreatic adenocarcinoma cell line growth inhibition [RAS]
- TEST CONDITIONS: second compound 0.01 µM; first compound 0.0316 µM; hits give low values
RESULT TYPE: viability, T/C (%)
The reply should contain only the number, in %.

## Input State, in one line, measured viability, T/C of NC1c2ccccc2OC12CCN(c1cnc3c(N4CCCc5ncccc54)n[nH]c3n1)CC2 (stereo not given) + C=CC(=O)N1CCN(c2nc(OCC3CCCN3C)nc3c(F)c(-c4nc(N)cc(C)c4C(F)(F)F)c(Cl)cc23)C(C)C1
## Output 113

## Input State, in one line, measured viability, T/C of Nc1ccn(C2OC(CO)C(O)C2(F)F)c(=O)n1 (stereo not given) + C=CC(=O)N1CCN(c2nc(OCC3CCCN3C)nc3c(F)c(-c4nc(N)cc(C)c4C(F)(F)F)c(Cl)cc23)C(C)C1
## Output 1.5

## Input State, in one line, measured viability, T/C of CC(C)NCC(C(=O)N1CCN(c2ncnc3c2C(C)CC3O)CC1)c1ccc(Cl)cc1 (stereo not given) + C=CC(=O)N1CCN(c2nc(OCC3CCCN3C)nc3c(F)c(-c4nc(N)cc(C)c4C(F)(F)F)c(Cl)cc23)C(C)C1
## Output 105

## Input State, in one line, measured viability, T/C of CCN1CCN(Cc2ccc(Nc3ncc(F)c(-c4cc(F)c5nc(C)n(C(C)C)c5c4)n3)nc2)CC1 + C=CC(=O)N1CCN(c2nc(OCC3CCCN3C)nc3c(F)c(-c4nc(N)cc(C)c4C(F)(F)F)c(Cl)cc23)C(C)C1
## Output 120

## Input State, in one line, measured viability, T/C of CC1(O)CCCC1n1c(=O)c(C(F)F)cc2cnc(NC3CCN(S(C)(=O)=O)CC3)nc21 (stereo not given) + C=CC(=O)N1CCN(c2nc(OCC3CCCN3C)nc3c(F)c(-c4nc(N)cc(C)c4C(F)(F)F)c(Cl)cc23)C(C)C1
## Output 138
